Cited source: ChEMBL document CHEMBL4513216

# ASSAY_OVERVIEW: Toxicity liver stage against HepG2, at 10uM
# Assay type: cell-based
# Design: test concentration 10 uM, cell line HepG2-A16-CD81EGFP
# TEST_SETTINGS: human, HepG2-A16-CD81EGFP cells; read-out: INHIBITION
Recorded cytotoxicity at 10 µM for the following compounds
The figure you give is taken to be in %; do not add the unit.

Look over these answered cases.
COMPOUND	MEASURED_METRIC	RESULT_UNIT	NUMBER
CC(C)c1cc(CNC(=O)N2CCC(Cc3cnn(C)c3)C2)on1 (stereo not given)	cytotoxicity at 10 µM	%	-10.9
Cc1c(C(=O)N2CCN(c3ncccn3)CC2)n(C)c2ccc(Cl)cc12	cytotoxicity at 10 µM	%	3.99
CNC(=O)c1c(C)cccc1NCc1noc(C2CC2)n1	cytotoxicity at 10 µM	%	29.7
CN1C(=O)C(C)(C)COc2cc(NS(=O)(=O)c3ccccc3F)ccc21	cytotoxicity at 10 µM	%	-5.08
NC(=O)c1cn(CC2CCC2)c(C2CC2)n1	cytotoxicity at 10 µM	%	12.8

INPUT: Could you tell me which cytotoxicity at 10 µM is on file for `CC(=O)c1cccc(-n2nc(C(C)=O)c(C(C)=O)c2C)c1` ?
OUTPUT: 4.45

INPUT: For CC(Cc1cncs1)Nc1ncnc2cccc(F)c12 (stereo not given) then?
OUTPUT: 17.5

INPUT: Now the compound `COCC(=O)Nc1ccc(C)cc1-c1nc(C2CC2)no1`
OUTPUT: -3.67

INPUT: Similarly, CN1CC2(CCN(CCOCCO)CC2)CC(c2ccccc2)C1=O (stereo not given) ?
OUTPUT: -9.88

---

Reported values of cytotoxicity at 10 µM for individual entries
# ASSAY_OVERVIEW: Toxicity liver stage against HepG2, at 10uM
# Format: cell-based
# Set-up: test concentration 10 uM, cell line HepG2-A16-CD81EGFP
# TEST_SETTINGS: human, HepG2-A16-CD81EGFP cells; read-out: INHIBITION
Express the result in % but write the number alone.

Sample answers from the record:
COMPOUND	MEASURED_METRIC	NUMBER
CC(=O)NCC(=O)N1CCC2(CC1)C(=O)N(CC1CC1)c1ccccc12	cytotoxicity at 10 µM	-4.1
CCn1nc2c(cc1=O)CN(Cc1nnc(C3CC3)o1)CC2	cytotoxicity at 10 µM	-16.2
CCOC(=O)NC(C(=O)NCc1ccc(N2CCCCC2)nc1)C(C)C (stereo unspecified)	cytotoxicity at 10 µM	-6.09
Cc1cccc(NCC(=O)NC2(C#N)CCCC2)c1C(=O)N1CCCC1	cytotoxicity at 10 µM	-0.69
COc1ccc(-c2noc(C(N)CCSC)n2)cc1OC (stereo unspecified)	cytotoxicity at 10 µM	11.2

INPUT: # input compound: `C1CCN(Cc2nnn3c2CN(CC2CC2)CCC3)C1` ; wanted: its cytotoxicity at 10 µM
OUTPUT: -139

INPUT: Entry `Cc1nnc(CN(C)Cc2ccc(C(=O)Nc3sccc3C#N)cc2)o1` please
OUTPUT: -6.88

INPUT: And then `CC(C)(C(=O)N[C@@H]1CCC[C@@H](O)[C@@H]1O)c1cccc(F)c1` , what is it?
OUTPUT: 4.79

INPUT: Item: `CCCNC(=O)c1cc2c(s1)CCN2C(=O)c1ccccc1`
OUTPUT: 7.31

INPUT: Please give the result for `CC(C)c1noc(CN(Cc2ccc(F)cc2)C2CC2)n1` too.
OUTPUT: 6.83

INPUT: Lookup `Cc1occc1C(=O)N1CCC2(CCC(=O)N(CC(N)=O)C2)CC1`
OUTPUT: -9.32

---

# ASSAY_OVERVIEW: Toxicity liver stage against HepG2, at 10uM
# Type: cell-based
# Design: test concentration 10 uM, cell line HepG2-A16-CD81EGFP
# TEST_SETTINGS: human, HepG2-A16-CD81EGFP cells; read-out: INHIBITION
Listing of recorded cytotoxicity at 10 µM by entry.
Hey, just the number and the unit after it is fine.

COMPOUND	cytotoxicity at 10 µM
O=C(c1cnc(C2CC2)s1)N1CCCCC1Cn1cccn1 (configuration not stated)	2.43%
O=C1N(c2cncnc2)CCC12CCCN(Cc1cccnc1)C2 (configuration not stated)	-79.6%
CCC(NC(=O)CN(C)Cc1ccc(C)o1)c1ccc(C)cc1 (configuration not stated)	3.97%
COc1ccc(-c2cc(N)on2)cc1	-12.8%
Cc1cccnc1CN1CCN(C(=O)c2cc(Cl)c[nH]c2=O)CC1	6.22%
Cc1noc(NC(=O)c2ccc(C#N)cc2)n1	-5.32%
COc1ccc(-c2noc(C(=O)NCCN3CCCCC3)n2)cc1OC	-6.24%
N#Cc1ccc(OCCNCCn2cccn2)cc1	-4.11%

INPUT: # query: cytotoxicity at 10 µM of entry Cc1ccc(CC(=O)NCC(Cc2ccc(F)cc2)C(N)=O)cn1 (configuration not stated)
OUTPUT: 12%

INPUT: // same read-out, input: `Cn1cnnc1SCCCNC(=O)Nc1ncccn1`
OUTPUT: 0.252%

INPUT: For `O=C(Cc1cccs1)NS(=O)(=O)c1cccc2cnccc12` then?
OUTPUT: -14.6%

INPUT: Record: `Cc1cc(CNC(=O)N2CCc3ccccc32)on1`
OUTPUT: -3.57%

---

# ASSAY_OVERVIEW: Toxicity liver stage against HepG2, at 10uM
# Assay type: cell-based
# Design: test concentration 10 uM, cell line HepG2-A16-CD81EGFP
# TEST_SETTINGS: human, HepG2-A16-CD81EGFP cells; read-out: INHIBITION
# cytotoxicity at 10 µM per record follows
Form entry: value (%) — number only.

These recorded examples may help you get a feel for the data.
COMPOUND	NUMBER
CN(CC(=O)NCC(CCO)c1ccccc1)C(=O)OC(C)(C)C (stereo unspecified)	-6.58
O=C(Nc1cccc(CN2CCOC2=O)c1)N1CCOCC1	-8.6
COCCNC(=O)[C@H]1C[C@@H]2CCN(c3ccncn3)C[C@H]2O1	2.4
CCOCC1CN(C(=O)COc2ccccc2C)Cc2ncn(C)c21 (stereo unspecified)	0.78
COc1ccccc1OC1(C(=O)O)CCN(c2cc(C)nc(C)c2)CC1	2.65

INPUT: I have this compound here, CCCOC1CCCN(C(=O)Cn2cccc(C(F)(F)F)c2=O)C1 (stereo unspecified) , and I need its recorded cytotoxicity at 10 µM.
OUTPUT: -0.912

---

# ASSAY_OVERVIEW: Toxicity liver stage against HepG2, at 10uM
# Format: cell-based
# Parameters: test concentration 10 uM, cell line HepG2-A16-CD81EGFP
# TEST_SETTINGS: human, HepG2-A16-CD81EGFP cells; read-out: INHIBITION
Given measured cytotoxicity at 10 µM, output true if it is greater than or equal to 10% and false if not.

INPUT: Please tell me: is the molecule `CC(C)(C)CCN1CCN(Cn2nccc2-c2cccnc2)CC1` at or over 10% in terms of cytotoxicity at 10 µM?
OUTPUT: true

INPUT: Query CCCOc1ccc(CC2=NC(C)(CO)CO2)cc1 (stereo unspecified) next
OUTPUT: true

INPUT: What about this molecule? Cc1ccc2[nH]c(CNC(=O)C3CC4(CCNCC4)CN3C)nc2c1C (stereo unspecified)
OUTPUT: false

---

# cytotoxicity at 10 µM per record follows
# ASSAY_OVERVIEW: Toxicity liver stage against HepG2, at 10uM
# Assay type: cell-based
# Parameters: test concentration 10 uM, cell line HepG2-A16-CD81EGFP
# TEST_SETTINGS: human, HepG2-A16-CD81EGFP cells; read-out: INHIBITION
Show the value, then the unit it is measured in.

Observe how each entry below is paired with its result.
COMPOUND	cytotoxicity at 10 µM
O=C(Nc1ccc(N2CCOCC2)nc1)N1CCc2sccc2C1	-2.26%
CCn1c(C)nnc1CN(C)C1CCN(CCCOC)C1 (configuration not stated)	4.19%
CS(=O)(=O)c1ccc(CNC(=O)N2CCC(c3ccccc3)CC2)cc1	-0.884%
CCOc1cccc(C(=O)N(CCC#N)Cc2ccccn2)c1	5.42%
CCC(=O)N1CCC(c2ncc3c(n2)CCNC3)CC1	-22.5%
Cc1nnc2n1CCN(CCOc1cccc(C#N)c1)C2	-7.88%

INPUT: // cytotoxicity at 10 µM lookup, key: `CO[C@H]1CCN(C(=O)c2ccc3[nH]nnc3c2)C[C@@]12CCCO2`
OUTPUT: -5.38%

---

The entries below are paired with their reported cytotoxicity at 10 µM.
# ASSAY_OVERVIEW: Toxicity liver stage against HepG2, at 10uM
# Format: cell-based
# Set-up: test concentration 10 uM, cell line HepG2-A16-CD81EGFP
# TEST_SETTINGS: human, HepG2-A16-CD81EGFP cells; read-out: INHIBITION
Lab book: enter the figure in %, no units written.

COMPOUND	RESULT_UNIT	cytotoxicity at 10 µM
CCOc1ccnc(N2CCN(C(=O)c3cn[nH]c3C)CC2)n1	%	3.54
O=C(NS(=O)(=O)c1cc(Cl)ccc1Cl)c1cccc2c1OCCO2	%	10.3
CCn1ccnc1CN1CCCC(N(C)CCc2ccccc2)C1 (centres undefined)	%	2.88
c1coc(CN2CCc3nnc(COc4cncnc4)n3CC2)c1	%	4.15
CCC(Cn1ccnc1)n1cnc2scc(C)c2c1=O (centres undefined)	%	10.7

INPUT: What does the data say about its cytotoxicity at 10 µM? Entry: `Cc1nccnc1N1Cc2cnc(CC(C)C)nc2C1`
OUTPUT: 1.81

INPUT: Request: `Cn1nc2c(cc1=O)CN(Cc1nc(-c3ccco3)no1)CC2`
OUTPUT: 1.22

INPUT: Please answer likewise for Cc1cc(C(F)(F)F)nc(CCNC(C)Cn2cncn2)n1 (centres undefined)
OUTPUT: 12

INPUT: Please answer likewise for CC(C)n1[nH]c(=O)c2c1NC(=O)CC2c1ccc(C#N)cc1 (centres undefined)
OUTPUT: 3.92

INPUT: // next record `Cc1ccccc1[C@@H]1CN(CCOCCO)C[C@H]1C(=O)O`
OUTPUT: -4.54

INPUT: Queued: `CN1CCCN(C(=O)c2ccc3c(c2)nc(N2CCOCC2)n3C)CC1`
OUTPUT: -11.9

INPUT: Also check Cc1cc(C)nc(C2CCN(C(=O)c3cncnc3C)C2)n1 (centres undefined)
OUTPUT: 5.16

INPUT: Same question, `O=C(Nc1cc[nH]n1)c1ccc(COCC(F)(F)F)cc1` this time
OUTPUT: -7.46

INPUT: Also O=C(CC1CCc2ccccc21)N1CCC(C(=O)O)(n2ccnc2)CC1 (centres undefined) ?
OUTPUT: 10.7
